Consider the following compounds and their measured Relative Potency readings.
# subject-of-test: VLA-4 (Homo sapiens, UniProt P05556+P13612)
# Sequence (P13612 34-1032): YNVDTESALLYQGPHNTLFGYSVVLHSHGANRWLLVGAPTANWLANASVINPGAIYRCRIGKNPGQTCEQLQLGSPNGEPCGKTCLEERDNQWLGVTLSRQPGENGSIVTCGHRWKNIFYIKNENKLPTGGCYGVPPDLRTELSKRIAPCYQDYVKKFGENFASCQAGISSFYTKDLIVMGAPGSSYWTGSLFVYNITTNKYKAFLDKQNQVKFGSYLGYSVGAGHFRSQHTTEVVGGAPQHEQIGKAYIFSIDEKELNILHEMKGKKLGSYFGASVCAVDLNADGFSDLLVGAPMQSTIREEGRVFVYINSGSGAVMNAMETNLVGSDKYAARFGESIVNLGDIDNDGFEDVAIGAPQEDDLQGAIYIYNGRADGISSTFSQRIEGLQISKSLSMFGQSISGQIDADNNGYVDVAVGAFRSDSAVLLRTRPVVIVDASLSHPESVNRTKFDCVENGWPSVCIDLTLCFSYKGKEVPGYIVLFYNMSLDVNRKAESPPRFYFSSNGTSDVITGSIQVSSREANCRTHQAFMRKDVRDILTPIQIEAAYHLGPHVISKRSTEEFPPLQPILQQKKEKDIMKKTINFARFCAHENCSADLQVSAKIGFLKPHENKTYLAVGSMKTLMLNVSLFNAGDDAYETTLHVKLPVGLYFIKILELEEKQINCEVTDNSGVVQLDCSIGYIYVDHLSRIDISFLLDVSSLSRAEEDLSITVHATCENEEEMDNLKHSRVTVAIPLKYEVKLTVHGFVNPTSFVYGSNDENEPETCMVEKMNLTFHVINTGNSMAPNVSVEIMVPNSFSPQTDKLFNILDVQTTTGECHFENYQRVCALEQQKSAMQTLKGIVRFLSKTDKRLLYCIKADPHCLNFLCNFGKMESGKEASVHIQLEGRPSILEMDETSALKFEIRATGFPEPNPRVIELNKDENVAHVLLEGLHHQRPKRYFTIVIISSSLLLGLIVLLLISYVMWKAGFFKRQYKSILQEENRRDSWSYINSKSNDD
# Sequence (P05556 21-798): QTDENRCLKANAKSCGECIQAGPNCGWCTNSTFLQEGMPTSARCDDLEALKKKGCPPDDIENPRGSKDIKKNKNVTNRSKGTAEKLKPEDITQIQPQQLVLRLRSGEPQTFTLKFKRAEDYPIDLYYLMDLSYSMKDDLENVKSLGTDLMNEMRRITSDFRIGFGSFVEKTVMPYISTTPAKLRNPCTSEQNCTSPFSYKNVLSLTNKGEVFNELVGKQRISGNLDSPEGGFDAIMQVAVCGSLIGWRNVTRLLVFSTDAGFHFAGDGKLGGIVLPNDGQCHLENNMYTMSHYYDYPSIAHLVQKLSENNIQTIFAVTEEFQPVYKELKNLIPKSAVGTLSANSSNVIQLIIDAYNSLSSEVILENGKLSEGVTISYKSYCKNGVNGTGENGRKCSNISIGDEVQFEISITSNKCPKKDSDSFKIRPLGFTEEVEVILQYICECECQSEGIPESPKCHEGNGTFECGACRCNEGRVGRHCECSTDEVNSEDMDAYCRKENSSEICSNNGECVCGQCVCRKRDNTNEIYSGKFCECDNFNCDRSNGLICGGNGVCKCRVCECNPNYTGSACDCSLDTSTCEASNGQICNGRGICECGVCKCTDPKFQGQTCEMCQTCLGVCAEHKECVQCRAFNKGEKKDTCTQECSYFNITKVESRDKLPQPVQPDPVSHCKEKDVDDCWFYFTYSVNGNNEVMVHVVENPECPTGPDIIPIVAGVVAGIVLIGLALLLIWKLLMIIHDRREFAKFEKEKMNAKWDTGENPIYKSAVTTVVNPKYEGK
# procedure-details: In vitro binding inhibition of 51Cr-labeled Jurkat cells to solid phase-bound CS-1 compound (SEQ ID NO:1)
# Assay type: cell-based
# Parameters: inflammatory cells that contain the VLA-4 receptor [Jurkat cells; host or cells: Jurkat (human T lymphoblastic line)
# test-parameters: binding inhibition potency relative to standard compound of SEQ ID NO:3 = 1 (normalized IC50); about one-tenth or less assigned zero
Square brackets hold non-standard residues; d marks the D form. Peptide text beside a SMILES is read from it. * marks the point of attachment. Phg = N[C@H](C(=O)O)c1ccccc1; Nle = CCCC[C@H](N)C(=O)O; PhAc = O=C(Cc1ccccc1)*; NHBu = CCCCN*
Simply state the number, no unit and no words.

Sample answers from the record:
| compound | Relative Potency |
| --- | --- |
| CC(C)C[C@H](NC(=O)Cc1ccccc1)C(=O)N[C@@H](CC(=O)O)C(=O)N[C@H](C(=O)N1CCC[C@@H]1C(N)=O)c1ccccc1 [896.69] (PhAc-LD[Phg][dP]-NH2) | 61 |
| CCCC[C@H](NC(=O)Cc1ccccc1)C(=O)N[C@@H](CC(=O)O)C(=O)N[C@@H](Cc1ccccc1)C(=O)N1CCC[C@@H]1C(N)=O [1160.02] (PhAc-[Nle]DF[dP]-NH2) | 49 |
| CC(C)C[C@H](NC(=O)Cc1ccccc1)C(=O)N[C@@H](CC(=O)O)C(=O)N[C@@H]1CCN(C2CCCCC2)C1=O | 3.44 |
| CCCCNC(=O)[C@H](Cc1ccccc1)NC(=O)[C@H](CC(=O)O)NC(=O)[C@H](CC(C)C)NC(=O)Cc1ccccc1 [1051.03] (PhAc-Leu-Asp-Phe-NHBu) | 2.82 |

// next entry
Q: Give the measured Relative Potency for CC(C)C[C@H](NC(=O)Cc1ccccc1)C(=O)N[C@@H](CC(=O)O)C(=O)NN(Cc1ccccc1)C(=O)C1CCCC1
Result: 1.28

* * *

# subject-of-test: VLA-4 (Homo sapiens, UniProt P05556+P13612)
# procedure-details: In vitro binding inhibition of 51Cr-labeled Jurkat cells to solid phase-bound CS-1 compound (SEQ ID NO:1)
# Assay type: cell-based
# Design: inflammatory cells that contain the VLA-4 receptor [Jurkat cells; host or cells: Jurkat (human T lymphoblastic line)
# test-parameters: binding inhibition potency relative to standard compound of SEQ ID NO:3 = 1 (normalized IC50); about one-tenth or less assigned zero
Square brackets hold non-standard residues; d marks the D form. Peptide text beside a SMILES is read from it. * marks the point of attachment. Cya = N[C@@H](CS(=O)(=O)O)C(=O)O; Morpholide = C1CN(*)CCO1; Piperidide = C1CCN(*)CC1; PhAc = O=C(Cc1ccccc1)*
Rule: Relative Potency under 200 gives Condition not met, otherwise Condition met.

| compound | answer-label |
| --- | --- |
| CC(C)C[C@H](NC(=O)Cc1ccccc1)C(=O)N[C@@H](CC(=O)O)C(=O)N[C@@H](Cc1ccccc1)C(=O)N1CCN(CC(N)=O)CC1 [1111.09] | Condition met |
| CC(C)C[C@H](NC(=O)Cc1ccccc1)C(=O)N[C@@H](CS(=O)(=O)O)C(=O)N[C@@H](Cc1ccccc1)C(=O)N1CCCCC1 [1026.06] (PhAc-Leu-[Cya]-Phe-Piperidide) | Condition not met |
| CC(C)C[C@H](NC(=O)Cc1ccccc1)C(=O)N[C@@H](CC(=O)O)C(=O)N[C@H](C(=O)N1CCC[C@@H]1C(N)=O)C(C)C [896.39] | Condition not met |
| CC(C)C[C@H](NC(=O)Cc1ccccc1)C(=O)N[C@@H](CC(=O)O)C(=O)N[C@H]1CCN(C2CCCCC2)C1=O [1057.02] | Condition not met |
| CC(C)C[C@H](NC(=O)Cc1ccccc1)C(=O)NC(C(=O)O)C(=O)N[C@@H](Cc1ccccc1)C(=O)N1CCCCC1 (stereo partly shown) [1026.02] | Condition not met |

Q: Is Relative Potency for CC(C)C[C@H](NC(=O)Cc1ccccc1)C(=O)N[C@@H](CC(=O)O)C(=O)N[C@@H](Cc1ccccc1)C(=O)N1CCC[C@H]1CO [951.17] at or above 200?
Result: Condition not met

Q: Is reported Relative Potency greater than or equal to 200 here: CC(C)C[C@H](NC(=O)Cc1ccccc1)C(=O)N[C@@H](CC(=O)O)C(=O)N[C@@H](Cc1ccccc1)C(=O)N1CCNCC1 [1051.02]
Result: Condition met

Q: Test whether the compound CC(C)C[C@H](NC(=O)Cc1ccccc1)C(=O)N[C@@H](CC(=O)O)C(=O)N[C@@H](Cc1ccccc1)C(=O)N1CCSCC1 [1111.02] records Relative Potency of 200 or higher.
Result: Condition met

Q: Does Relative Potency meet or surpass 200 for CC(C)C[C@H](NC(=O)Cc1ccccc1)C(=O)N[C@@H](CC(=O)O)C(=O)N[C@@H](Cc1ccc(O)cc1)C(=O)N1CCOCC1 [1045.02] (PhAc-Leu-Asp-Tyr-Morpholide) ?
Result: Condition met

Q: Identify whether the reported Relative Potency of the following compound is 200 or greater: CC(C)C[C@H](NC(=O)Cc1ccccc1)C(=O)N[C@@H](CP(=O)(O)O)C(=O)N[C@@H](Cc1ccccc1)C(=O)N1CCCCC1 [1026.07]
Result: Condition not met

* * *

# subject-of-test: VLA-4 (Homo sapiens, UniProt P05556+P13612)
# procedure-details: In vitro binding inhibition of 51Cr-labeled Jurkat cells to solid phase-bound CS-1 compound (SEQ ID NO:1)
# Format: cell-based
# Set-up: inflammatory cells that contain the VLA-4 receptor [Jurkat cells; host or cells: Jurkat (human T lymphoblastic line)
Square brackets hold non-standard residues; d marks the D form. Peptide text beside a SMILES is read from it. * marks the point of attachment. Pyrazinecarbonyl = O=C(c1cnccn1)*; X15 = O=S(=O)(c1cccc2cccnc12)*
Some compounds, each annotated with its measured Relative Potency.
Give a plain numeric answer without units written out.

| compound | subject-of-test | observed-measurement |
| --- | --- | --- |
| CC(C)C[C@H](NC(=O)c1cnccn1)C(=O)N[C@@H](CC(=O)O)C(=O)N[C@@H](Cc1ccccc1)C(=O)N1CCC[C@@H]1C(N)=O [951.02] (Pyrazinecarbonyl-LDF[dP]-NH2) | VLA-4 (Homo sapiens, UniProt P05556+P13612) | 19.4 |
| CC(C)C[C@H](N)C(=O)N[C@@H](CC(=O)O)C(=O)N[C@H](C(N)=O)C(C)C [926.29] (H-Leu-Asp-Val-NH2) | VLA-4 (Homo sapiens, UniProt P05556+P13612) | 0.01 |
| CC(C)C[C@H](NS(=O)(=O)c1cccc2cccnc12)C(=O)N[C@@H](CC(=O)O)C(=O)N[C@@H](Cc1ccccc1)C(=O)N1CCC[C@@H]1C(N)=O [951.07] (X15-LDF[dP]-NH2) | VLA-4 (Homo sapiens, UniProt P05556+P13612) | 1.57 |

Now consider a different compound.
Q: Supply Relative Potency value. Item: CC(C)C[C@@H](C(=O)N[C@@H](CC(=O)O)C(=O)N[C@H](C(=O)N1CCC[C@@H]1C(N)=O)C(C)C)N1C(=O)c2ccccc2C1=O
Result: 110

* * *

# subject-of-test: VLA-4 (Homo sapiens, UniProt P05556+P13612)
# procedure-details: In vitro binding inhibition of 51Cr-labeled Jurkat cells to solid phase-bound CS-1 compound (SEQ ID NO:1)
# Type: cell-based
# Design: inflammatory cells that contain the VLA-4 receptor [Jurkat cells; host or cells: Jurkat (human T lymphoblastic line)
Numbered stars: 1 amine (or outer) side, 2 acyl side, 3 side chain; on linkers, the order of the positions; unused ones are H or OH. Square brackets hold non-standard residues; d marks the D form. Peptide text beside a SMILES is read from it. * marks the point of attachment. X20 = O=C(CCCCCO[C@@H]1O[C@H](CO)[C@@H](O)[C@H](O)[C@H]1N[*:1])[*:2]; Piperidide = C1CCN(*)CC1; CO = O=C([*:1])[*:2]; NHPh = c1ccc(N*)cc1
experimental-endpoint: Relative Potency
Could you keep your reply to the number by itself?

Consider the reported Relative Potency for these compounds:
| compound | subject-of-test | Relative Potency |
| --- | --- | --- |
| CC(C)CCC(=O)N[C@@H](CC(C)C)C(=O)N[C@@H](CC(=O)O)C(=O)N[C@H](C(=O)N1CCC[C@@H]1C(N)=O)C(C)C [896.47] | VLA-4 (Homo sapiens, UniProt P05556+P13612) | 5.01 |
| CC(C)C[C@H](NC(=O)Nc1ccccc1)C(=O)N[C@@H](CC(=O)O)C(=O)N[C@@H](Cc1ccccc1)C(=O)N1CCC[C@@H]1C(N)=O [896.62] ({NHPh-CO}-LDF[dP]-NH2) | VLA-4 (Homo sapiens, UniProt P05556+P13612) | 257 |
| CC(C)C[C@H](NC(=O)c1ccccn1)C(=O)N[C@@H](CC(=O)O)C(=O)N[C@H](C(=O)N1CCC[C@@H]1C(N)=O)C(C)C [896.54] | VLA-4 (Homo sapiens, UniProt P05556+P13612) | 13 |

Alright, here's another compound for you.
Q: Please list Relative Potency recorded for the compound CC(=O)N[C@H]1[C@H](OCCCCCC(=O)N[C@@H](Cc2ccccc2)C(=O)N[C@@H](CC(C)C)C(=O)N[C@@H](CC(=O)O)C(=O)N[C@@H](Cc2ccccc2)C(=O)N2CCCCC2)O[C@H](CO)[C@@H](O)[C@@H]1O [1063.01] (Ac-[X20]FLDF-Piperidide)
Result: 40.7
